The measurements presented in this section are drawn from PubChem BioAssay AID2315.

Test: A qHTS for Small Molecule Inhibitors of Shiga Toxin
Details: Vero cells, Shiga toxin protein synthesis inhibition reporter; at 38.7 µM
In all, about 290,000 compounds went through this assay and about 27,000 (9.3%) were called active. No stated cut-off is given here; in the data, active means inhibition mostly above about 28% (no sharp cut-off); inactive means mostly below about 43%. For the sample, actives were picked, then their nearest neighbours and some compounds at random.
Outcome codes: true (1) (active), false (0) (inactive)

| compound | label-class |
| --- | --- |
| O=C(c1ccc2ccccc2n1)N1CCN(c2ccccc2Cl)CC1 | true (1) |
| O=C(NCc1cccnc1)c1cccc(-c2cc3ccccc3oc2=O)c1 | false (0) |
| CN(C(=O)c1cccc([N+](=O)[O-])c1)c1ccccc1C(=O)NCc1ccccc1 | false (0) |
| CNC(=O)COC(=O)c1cc(-c2ccc(OC)cc2)nc2ccccc12 | true (1) |
| C/C(N)=C(/C#N)C(=O)COC(=O)c1cc(-c2ccc(C)cc2)nc2ccccc12 | true (1) |
| Cc1cc(N/N=C/c2ccccc2F)c2ccccc2n1 | false (0) |
| Oc1ccc(/C=N/NC2=NCCCCC2)c(O)c1 | true (1) |
| COc1ccc(C(=O)NC2CC(C)(C)Cc3c2cnn3-c2ccccc2C)o1 (stereo unspecified) | false (0) |
| O=C(Oc1cccnc1)c1cc2ccccc2oc1=O | false (0) |
| Oc1ccc(/C=N/Nc2nc(-c3ccccc3F)nc3ccccc23)c(O)c1 | false (0) |
| Nc1ccc(N=Nc2ccccc2Cl)c(N)n1 | true (1) |
